Value source: ChEMBL document CHEMBL4513146

system: Klebsiella pneumoniae; settings: Concentration 32 ug.mL-1;; ASSAY_TEST Inhibition of Bacterial Growth; detection method Absorption (OD600); MEDIA CAMHB; plate type 384well; NBS; CORNING #3640; time 18 hr
Description: Antibacterial activity against Klebsiella pneumoniae MDR ATCC 70063 (CO-ADD:GN_003); MIC in CAMBH media using NBS plates, by OD(600)
Entries with a potency or affinity are not part of this list.

SMILES_CODE: CCOC(=O)c1ccc(NC(=O)Cn2nc3c(Oc4ccccc4)nccn3c2=O)cc1
Inhibition / %: 1.59

SMILES_CODE: Cc1ccc(NC(=O)Cn2nc3ccc(SC4CCCCC4)nn3c2=O)cc1
Inhibition / %: -2.92

SMILES_CODE: O=C(Cn1nc2c(SCc3ccccc3)nccn2c1=O)NC1CCCCC1
Inhibition / %: 7.95

SMILES_CODE: Cc1ccc(-c2ccc3nn(CC(=O)NCc4ccc(Cl)cc4)c(=O)n3n2)cc1C
Inhibition / %: 6.14

SMILES_CODE: COc1ccc(-c2cc3c4nnc(SCC(=O)Nc5cccc(C)c5C)n4ccn3n2)cc1
Inhibition / %: 2.16
